# Experimental System: HLA-A*68:02
# Assay Notes: IEDB peptide-MHC binding, purified MHC/competitive/fluorescence; filed as Kd, often an IC50 or EC50 that approximates it; bounds were set here for any values at or beyond the usual limits of such assays
# Test Parameters: source organism: Vibrio parahaemolyticus RIMD 2210633
Endpoint Name: Kd (nM)
Field: numeric (nM). Do not append units.

Lab note: sequence "HVIYFTAFT" tested on HLA-A*68:02; recorded Kd was 57.7

====

# Experimental System: HLA-B*40:01
# Assay Notes: IEDB peptide-MHC binding, purified MHC/direct/fluorescence; filed as Kd, often an IC50 or EC50 that approximates it; bounds were set here for any values at or beyond the usual limits of such assays
# Test Parameters: source organism: Bacillus anthracis
pKd: −log10 of the molar value.
Endpoint Name: pKd

Briefly, pKd measured for "FTDNNELEF" : ≤ 4.70

====

# Experimental System: HLA-A*02:01
# Assay Notes: IEDB peptide-MHC binding, purified MHC/direct/fluorescence; filed as Kd, often an IC50 or EC50 that approximates it; bounds were set here for any values at or beyond the usual limits of such assays
# Test Parameters: source organism: Haemophilus influenzae
Endpoint Name: Kd
Hi, when you answer, please include the unit after the number. Thanks!

Briefly, Kd measured for "FLADYRGKT" : 1360 nM

====

# Experimental System: HLA-B*51:01
# Assay Notes: IEDB peptide-MHC binding, purified MHC/competitive/radioactivity; filed as Kd, often an IC50 or EC50 that approximates it; bounds were set here for any values at or beyond the usual limits of such assays
# Test Parameters: source organism: Lymphocytic choriomeningitis virus (strain Armstrong)
Endpoint Name: Kd

Lab note: sequence "MPSEDGAEAL" tested on HLA-B*51:01; recorded Kd was ≥ 21.5 µM

====

# Experimental System: HLA-B*08:01
# Assay Notes: IEDB peptide-MHC binding, purified MHC/direct/fluorescence; filed as Kd, often an IC50 or EC50 that approximates it; bounds were set here for any values at or beyond the usual limits of such assays
# Test Parameters: source organism: Mycobacterium tuberculosis str. Haarlem
Endpoint Name: Kd

Briefly, Kd measured for "LPAQLTATA" : ≥ 20 µM

====

# Experimental System: HLA-B*08:01
# Assay Notes: IEDB peptide-MHC binding, purified MHC/competitive/radioactivity; filed as Kd, often an IC50 or EC50 that approximates it; bounds were set here for any values at or beyond the usual limits of such assays
# Test Parameters: source organism: Dengue virus 1 Brazil/97-11/1997
Assign pKd to each entry below.
Please treat pKd as minus the base-10 logarithm of the molar concentration.

Briefly, pKd measured for "EQMQRKHGGM" : 7.07

Briefly, pKd measured for "TPMMRHTIE" : 8.14

Briefly, pKd measured for "LAGAGLAFSL" : 5.58

Briefly, pKd measured for "MPIRYQTTA" : 6.70

====

# Experimental System: HLA-B*46:01
# Assay Notes: IEDB peptide-MHC binding, purified MHC/competitive/fluorescence; filed as Kd, often an IC50 or EC50 that approximates it; bounds were set here for any values at or beyond the usual limits of such assays
# Test Parameters: source organism: Rickettsia typhi str. Wilmington
pKd: −log10 of the molar value.
Endpoint Name: pKd

Briefly, pKd measured for "QLEVRSTEV" : ≤ 4.70

====

# Experimental System: HLA-A*03:01
# Assay Notes: IEDB peptide-MHC binding, purified MHC/direct/fluorescence; filed as Kd, often an IC50 or EC50 that approximates it; bounds were set here for any values at or beyond the usual limits of such assays
# Test Parameters: source organism: Campylobacter jejuni RM1221
Endpoint Name: Kd

Briefly, Kd measured for "AKYEICLEK" : ≥ 20000 nM

Briefly, Kd measured for "VQKVNPAPK" : 476 nM
